Would you kindly list melting point for each of these compounds?

>>> result("NC(=O)Cc1ccc(OC[C@@H]2CO2)cc1")
"168 to 169 °C"
>>> result("CNCc1cccc(C2CCN(c3c(F)c(N)c4c(=O)c(C(=O)O)cn(C5CC5)c4c3F)C2)c1 (stereo not given)")
"> 270 °C"
>>> result("Brc1ccc2c(c1)C=NC=CN2")
"135 to 138 °C"
>>> result("N#Cc1ccc(-c2cccc(-c3nc4ccc(C#N)cc4[nH]3)n2)cc1")
"311 to 312 °C"

# next compound below
Return reported melting point; argument: CCn1ncc2c(NCC3CCCCC3)c3cc(O)ccc3nc21
223 to 224 °C

* * *

Would you kindly list melting point for each of these compounds?

>>> result("CC(C)NCC(O)COc1ccc(OCCOCC2CCC2)cc1 (stereo unspecified)")
"56 °C"

Please state, for each entry, its recorded melting point.
1. COC(=O)NCc1ccc2ccn(C3CCN(CCc4ccc(F)cc4)CC3)c2c1
2. CC1(C)CN(CC=CC(=O)Nc2cc3c(Nc4ccc(F)c(Cl)c4)ncnc3cc2OCC2CC2)CC(=O)O1
3. CC(C)c1ccccc1SC1=C(O)CC(CCc2ccccc2)(c2ccccc2)OC1=O (stereo unspecified)
4. Cn1cncc1C(N)(c1ccc(Cl)cc1)c1ccc2c(c1)c(-c1nc(-c3ccccc3)cs1)cc(=O)n2C (stereo unspecified)
5. COC(=O)c1cc(OCc2ccc(OCc3nc(-c4ccccc4)oc3C)c(OC)c2)nn1-c1ccccc1
6. Cc1[nH]c(=O)[nH]c1C(=O)c1ccc(N2CCOCC2)cc1

117 to 118 °C
140 to 142 °C
66 to 67 °C
237 °C
143 to 144 °C
283 to 286 °C

Please state, for each entry, its recorded melting point.
1. Cc1ccc2ccc(C(N)=O)cc2c1
2. COc1ccc(N2CCN(C(=O)NCCN(C)C)CC2)cc1
3. Cc1nc2cc3c(cc2s1)C1(CO3)C(=O)N(CC2CCOCC2)c2ccccc21 (stereo unspecified)
4. CCC(CC)C(NS(=O)(=O)c1ccc(Cl)s1)c1ccnn1Cc1ccc(O)cc1 (stereo unspecified)

1: 210 to 212 °C; 2: 79 to 82 °C; 3: 186 to 187 °C; 4: 90 to 92 °C

* * *

Would you kindly list melting point for each of these compounds?

>>> result("Cc1ccc2cccc(OCc3cccc(N(C)C(=O)CN4C(=O)c5ccccc5C4=O)c3C)c2n1")
"158 to 161 °C"
>>> result("CN(C)C=NS(=O)(=O)c1ccccc1-c1ccc(Cn2c(-c3ccccc3)nc(Cl)c2C=O)cc1")
"193 °C"
>>> result("COc1ccc(Cc2oc3ccc(O)cc3c2C)cc1")
"128 to 131 °C"
>>> result("CCNc1nc(Nc2ccccc2)ncc1CCC(=O)OCC")
"106 to 107 °C"
>>> result("CCC(O)CN1N=C(c2ccccc2)CC(O)C1=O (stereo not given)")
"92 to 94 °C"
>>> result("CN(C)C(=O)Cn1c(-c2ccc(Cl)cc2)nc2cccnc21")
"212 to 213 °C"

Please state, for each entry, its recorded melting point.
1. N#Cc1ccc2oc3ncccc3c(=O)c2c1
2. CC(=O)Oc1c(C)c(C)c2c(c1C)CCC(C)(C(=O)N1CCN(c3cc(N4CCCC4)nc(N4CCCC4)n3)CC1)O2 (stereo not given)

1: 260 °C; 2: 191 to 192 °C

Please state, for each entry, its recorded melting point.
1. CCOC(=O)c1snnc1SC
2. Cc1c(C(=O)NNC(C)(C)C)ccc2c1CCCO2
3. COc1cc(-c2ccccc2F)c(Cl)cc1C(=O)N1Cc2ccc(C(=O)O)n2Cc2ccccc21

["64.5 to 65.5 °C", "146 to 148 °C", "192 to 194 °C"]
